Listed here: items and their measured inhibition at 1 µM.
# test.system: FAAH (Mus musculus)
# Construct: Proteomes (mouse brain membrane fraction or cell lysates); from tissue; host or cells: mouse brain membrane fraction (or cell lysates, not specified)
# Sequence (O08914 whole entry): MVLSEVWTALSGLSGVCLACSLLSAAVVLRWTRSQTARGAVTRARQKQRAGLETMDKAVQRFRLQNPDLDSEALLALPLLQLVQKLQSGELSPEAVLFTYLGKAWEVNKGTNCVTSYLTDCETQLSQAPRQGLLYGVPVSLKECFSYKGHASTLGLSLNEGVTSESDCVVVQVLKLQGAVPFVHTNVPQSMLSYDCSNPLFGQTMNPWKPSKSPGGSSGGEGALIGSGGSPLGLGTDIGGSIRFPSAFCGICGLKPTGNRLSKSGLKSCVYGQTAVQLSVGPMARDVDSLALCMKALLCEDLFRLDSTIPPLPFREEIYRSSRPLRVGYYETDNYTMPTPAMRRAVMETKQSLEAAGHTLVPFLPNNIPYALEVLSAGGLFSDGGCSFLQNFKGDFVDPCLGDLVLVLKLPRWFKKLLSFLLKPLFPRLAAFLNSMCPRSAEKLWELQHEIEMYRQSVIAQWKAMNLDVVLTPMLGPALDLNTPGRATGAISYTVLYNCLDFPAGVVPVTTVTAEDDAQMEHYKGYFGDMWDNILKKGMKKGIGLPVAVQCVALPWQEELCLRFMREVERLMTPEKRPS
# assay.comment: In vitro competitive activity-based protein profiling (gel-based, FP-Rh or HT-01 probe)
# Assay type: biochemical
# test.settings: 1 μM inhibitor; read-out: % Inhibition at 1 μM, B = FAAH

molecule	observable	assay.result
O=C(N1CCN(Cc2ccc(C(F)(F)F)cc2N2CCCC2)CC1)n1cc(Cl)cn1 [Example 125]	inhibition at 1 µM	< 25%
O=C(N1CCN(c2ccc(Cl)cc2)CC1)n1cc(C(F)(F)F)cn1 [Example 229]	inhibition at 1 µM	> 75%
O=C(N1CCN(CC2CC2)CC1)n1cc(Cl)cn1 [Example 215]	inhibition at 1 µM	> 75%
O=C(N1CCN(c2ccc(N3CCCC3)cc2)CC1)n1cc(C(F)(F)F)cn1 [Example 241]	inhibition at 1 µM	> 75%
O=C(N1CCN(Cc2ccc3ccccc3c2)CC1)n1cc(I)cn1 [Example 14]	inhibition at 1 µM	> 75%

Asked: So what does the record say about inhibition at 1 µM for CC(=O)N1CCN(C(=O)n2cc(Cl)cn2)CC1 [Example 183] ?
Given back: < 25%

Asked: Item under review: N#Cc1cnn(C(=O)Nc2ccc3ccccc3c2)c1 [Example 42] . Reported inhibition at 1 µM?
Given back: < 25%

Asked: For CC(C)c1cnn(C(=O)N2CCN(Cc3c(N4CCCC4)cccc3C(F)(F)F)CC2)c1 [Example 112] , what is its reported inhibition at 1 µM?
Given back: < 25%

Asked: Give the measured inhibition at 1 µM of Cc1cc(N2CCOCC2)ccc1CN1CCN(C(=O)n2cc(Cl)cn2)CC1 [Example 218] .
Given back: > 75%

Asked: I have this molecule here, CCN(Cc1cccc(N2CCOCC2)c1)C(=O)n1cc(C#N)cn1 [Example 242] , and I need its recorded inhibition at 1 µM.
Given back: > 75%

Asked: I am curious: what inhibition at 1 µM value has been reported for Cc1cnn(C(=O)Nc2ccc3ccccc3c2)c1 [Example 41] ?
Given back: < 25%

Taken from patent US10093630B2.
